tested on: Vaccinia virus; experiment: Antiviral activity against Vaccinia virus; format: functional, organism-based; conditions: Orthopoxvirus vaccinia
Readout Kind: EC50 (µM)
Give just the number in µM; leave the unit off.

In [3]: df
Out[3]:
                         compound_string  result_units  recorded_result
0  Nc1ccn(C[C@@H](CO)OCP(=O)(O)O)c(=O)n1            µM                6

Attention now turns to another entry.
*Q* Item under review: NC(=O)c1cn([C@@H]2C=C(CO)[C@@H](O)[C@H]2O)nn1 . Reported EC50?
*A* 0.4

Data origin: ChEMBL document CHEMBL1148631
